# Test system: vertebral artery
# measurement.description: Blood flow and blood vessel resistance of vertebral artery in anesthetized dogs
# Type: in vivo, dog
# setup.conditions: Canis lupus familiaris, iv; 0.03 mg/kg; % of value before administration, average ± standard error; read-out: Vertebral artery vessel resistance, percentage compared with control
# key: entry, value: response vs control in vivo at 0.03 mg/kg
# output: number + unit

Below, 7 compounds whose answers are already recorded.
{"columns": ["compound", "target.system", "observed"],
 "data": [
  ["COC(=O)C1=C(C)N=C(C)N(C(=O)OC)C1c1cccc([N+](=O)[O-])c1 (centres unmarked) [Compound 17]", "vertebral artery", "77%"],
  ["CCOC(=O)C1=C(Cl)N=C(C)N(C(=O)OCC)C1c1ccccc1[N+](=O)[O-] (centres unmarked) [Compound 4]", "vertebral artery", "61%"],
  ["CCOC(=O)C1=C(C)N=C(C)N(C(=O)OCC)C1c1ccccc1[N+](=O)[O-] (centres unmarked) [Compound 1]", "vertebral artery", "50%"],
  ["CCOC(=O)C1=C(C)N=C(C)N(C(=O)OCC)C1c1ccccc1Br (centres unmarked) [Compound 8]", "vertebral artery", "48%"],
  ["CCOC(=O)C1=C(C)N=C(C)N(C(=O)OCC)C1c1cccc([N+](=O)[O-])c1 (centres unmarked) [Compound 12]", "vertebral artery", "62%"],
  ["CCOC(=O)C1=C(C)N=C(C)N(C(=O)OCC)C1c1ccccc1Cl (centres unmarked) [Compound 22]", "vertebral artery", "49%"],
  ["COC(=O)C1=C(C)N=C(C)N(C(=O)OC)C1c1ccccc1[N+](=O)[O-] (centres unmarked) [Compound 10]", "vertebral artery", "67%"]
]}

Field response vs control in vivo at 0.03 mg/kg (entry CCOC(=O)C1=C(Cl)N=C(C)N(C(=O)OCC)C1c1cccc([N+](=O)[O-])c1 (centres unmarked) [Compound 13] ) reads 73%

* * *

# System: vertebral artery
# measurement.description: Blood flow and blood vessel resistance of vertebral artery in anesthetized dogs
# Format: in vivo, dog
# setup.conditions: Canis lupus familiaris, iv; 0.1 mg/kg; % of value before administration, average ± standard error; read-out: Vertebral artery vessel resistance, percentage compared with control
assay.metric: response vs control in vivo at 0.1 mg/kg (%)
Write the answer as a number in %, unit excluded.

{"columns": ["compound", "assay.metric", "observed"],
 "data": [
  ["CCOC(=O)C1=C(Cl)N=C(C)N(C(=O)OCC)C1c1ccccc1[N+](=O)[O-] (stereo not shown) [Compound 4]", "response vs control in vivo at 0.1 mg/kg", 51]
]}

Field response vs control in vivo at 0.1 mg/kg (entry CCOC(=O)C1=C(C)N=C(C)N(C(=O)OCC)C1c1ccccc1Br (stereo not shown) [Compound 8] ) reads 40

Field response vs control in vivo at 0.1 mg/kg (entry CCOC(=O)C1=C(Cl)N=C(C)N(C(=O)OCC)C1c1cccc([N+](=O)[O-])c1 (stereo not shown) [Compound 13] ) reads 54

Field response vs control in vivo at 0.1 mg/kg (entry CCOC(=O)C1=C(C)N=C(C)N(C(=O)OCC)C1c1ccccc1Cl (stereo not shown) [Compound 22] ) reads 39

* * *

# Tested on: systemic blood pressure
# measurement.description: Systemic blood pressure (average pressure) in anesthetized dogs
# Format: in vivo, dog
# setup.conditions: Canis lupus familiaris, iv; 0.01 mg/kg; % of value before administration, average ± standard error; read-out: Average blood pressure, percentage compared with control
assay.metric: response vs control in vivo at 0.01 mg/kg (%)
Write the answer as a number in %, unit excluded.

Below, 3 molecules whose answers are already recorded.
{"columns": ["molecule", "observed"],
 "data": [
  ["CCOC(=O)C1=C(Cl)N=C(C)N(C(=O)OCC)C1c1ccccc1[N+](=O)[O-] (stereo not drawn) [Compound 4]", 91],
  ["CCOC(=O)C1=C(C)N=C(C)N(C(=O)OCC)C1c1ccccc1Cl (stereo not drawn) [Compound 22]", 82],
  ["CCOC(=O)C1=C(C)N=C(C)N(C(=O)OCC)C1c1cccc([N+](=O)[O-])c1 (stereo not drawn) [Compound 12]", 86]
]}

Field response vs control in vivo at 0.01 mg/kg (entry CCOC(=O)C1=C(C)N=C(C)N(C(=O)OCC)C1c1ccccc1[N+](=O)[O-] (stereo not drawn) [Compound 1] ) reads 79

Field response vs control in vivo at 0.01 mg/kg (entry CCOC(=O)C1=C(Cl)N=C(C)N(C(=O)OCC)C1c1cccc([N+](=O)[O-])c1 (stereo not drawn) [Compound 13] ) reads 92

Field response vs control in vivo at 0.01 mg/kg (entry COC(=O)C1=C(C)NC(C)=C(C(=O)OCCN(C)Cc2ccccc2)C1c1cccc([N+](=O)[O-])c1 (stereo not drawn) [Nicardipine, reference compound] ) reads 80

Field response vs control in vivo at 0.01 mg/kg (entry CCOC(=O)C1=C(C)N=C(C)N(C(=O)OCC)C1c1ccccc1Br (stereo not drawn) [Compound 8] ) reads 81

Field response vs control in vivo at 0.01 mg/kg (entry COC(=O)C1=C(C)N=C(C)N(C(=O)OC)C1c1ccccc1[N+](=O)[O-] (stereo not drawn) [Compound 10] ) reads 86

Field response vs control in vivo at 0.01 mg/kg (entry COC(=O)C1=C(C)N=C(C)N(C(=O)OC)C1c1cccc([N+](=O)[O-])c1 (stereo not drawn) [Compound 17] ) reads 89

These data points were gathered from patent US4640922A.
